- System: MDA-MB-231 breast
- Test details: NCI-60 one-dose screen, 48 h (100 = growth as untreated, 0 = no growth, -100 = all killed)
- Conditions used: 10 µM unless noted
About 83,000 compounds went through this panel and 20% of them were active in at least one assay; those are over-represented in the sample as a whole.
Kindly return met if reported growth is no lower than 70%; return not met if it is lower.

{"Molecule": "CCn1cc(C(=O)O)c(=O)c2cc(F)c(N3CCN(S(=O)(=O)c4ccc(Cl)cc4)CC3)cc21", "Target system": "MDA-MB-231 breast", "Category label": "not met"}
{"Molecule": "CCCCCCCCCCCCCCCCCC1=NCCN1CS(=O)(=O)O", "Target system": "MDA-MB-231 breast", "Category label": "not met"}
{"Molecule": "CCOC(=O)c1ccc2n1CCCc1cnc(NC(C)=O)nc1-2", "Target system": "MDA-MB-231 breast", "Category label": "met"}
{"Molecule": "CCN(CC)CCCC(C)Nc1c(C)cnc2cc(Cl)c(C)cc12 (stereo unspecified)", "Target system": "MDA-MB-231 breast", "Category label": "met"}
{"Molecule": "COc1ccc(Cn2cc3c(c2-c2ccccc2)CCc2cnoc2-3)cc1N", "Target system": "MDA-MB-231 breast", "Category label": "not met"}
{"Molecule": "COc1ccc(Oc2[nH]n(C3=Nc4ccccc4Sc4ccccc43)c(=O)c2C#N)cc1", "Target system": "MDA-MB-231 breast", "Category label": "met"}

====

- System: NCI/ADR-RES ovarian
- Test details: NCI-60 one-dose screen, 48 h
- Conditions used: 10 µM unless noted
Compounds without any hit were thinned out: in the full panel of roughly 83,000, 20% have a hit. Calls of active or inactive are those of the source. Rule for the calls: active = growth percent below 10; inactive = the rest.
Possible outcomes: active, inactive

{"Molecule": "CN(C)CCOC(=O)C(C)(C)C", "Target system": "NCI/ADR-RES ovarian", "Category label": "inactive"}
{"Molecule": "CCOc1ccc(Br)cc1/C=C(\\C#N)c1ccc([N+](=O)[O-])cc1", "Target system": "NCI/ADR-RES ovarian", "Category label": "inactive"}
{"Molecule": "N/C(=N\\O)c1ccncc1", "Target system": "NCI/ADR-RES ovarian", "Category label": "inactive"}
{"Molecule": "O=Nc1c(-c2c(O)[nH]c3cc(Br)ccc23)[nH]c2ccccc12", "Target system": "NCI/ADR-RES ovarian", "Category label": "active"}
{"Molecule": "COC(=O)c1ccc2[nH]c(O)c(C(=Nc3ccc(N(C)C(=O)CN4CCN(C)CC4)cc3)c3ccc4c(c3)OCO4)c2c1", "Target system": "NCI/ADR-RES ovarian", "Category label": "inactive"}
{"Molecule": "CC(=O)OC1CC2C3CCC4C[C@@H](NC(=O)C=C(C)C)CC[C@]4(C)C3CC[C@]2(C)[C@H]1C(C)N(C)C (stereo not given in full)", "Target system": "NCI/ADR-RES ovarian", "Category label": "inactive"}
{"Molecule": "O=C1C(Br)=CC2C1C1C3CCC3C2(Br)C12OCCO2 (stereo not given)", "Target system": "NCI/ADR-RES ovarian", "Category label": "inactive"}
{"Molecule": "CCOC(=O)C1C(=O)C(=O)N(C(C)C)C1C(=O)OCC (stereo not given)", "Target system": "NCI/ADR-RES ovarian", "Category label": "inactive"}
{"Molecule": "COc1cccc2c1n([O-])c1cccc(OC)c1[n+]2=O", "Target system": "NCI/ADR-RES ovarian", "Category label": "inactive"}
{"Molecule": "CCOC(=O)c1sc(NS(=O)(=O)c2ccccc2)nc1C", "Target system": "NCI/ADR-RES ovarian", "Category label": "inactive"}
{"Molecule": "CC1C(=O)CCCC1=O", "Target system": "NCI/ADR-RES ovarian", "Category label": "inactive"}
{"Molecule": "CC(C)CSc1nc(-c2ccc(F)cc2)c(C#N)c(N2CCCCC2)n1", "Target system": "NCI/ADR-RES ovarian", "Category label": "inactive"}
{"Molecule": "CCCCCCCCCCCCOC(=O)/C=C\\C(=O)NC(N)=O", "Target system": "NCI/ADR-RES ovarian", "Category label": "inactive"}
{"Molecule": "CN1CCN(Cc2ccc(NC(=O)c3cncc(C#Cc4c(N)ncc5ccc(F)cc45)c3)cc2C(F)(F)F)CC1", "Target system": "NCI/ADR-RES ovarian", "Category label": "inactive"}
{"Molecule": "COc1ccc(/C=C/C(=O)/C=C/c2cc3ccccc3[nH]c2=O)cc1", "Target system": "NCI/ADR-RES ovarian", "Category label": "inactive"}
{"Molecule": "COc1cc2cn3c4ccc(O)cc4[nH]c(=O)c3c2cc1OC", "Target system": "NCI/ADR-RES ovarian", "Category label": "inactive"}
{"Molecule": "CCCCCCCCCCCCCCCCNC(=S)N/N=C/c1ccc(O)cc1O", "Target system": "NCI/ADR-RES ovarian", "Category label": "inactive"}
{"Molecule": "CCC(C)C1NC(=O)C(CC(C)C)NC(=O)C(C)NC(=O)C(C(C)C)NC(=O)C(CCCCN)NC(=O)C(CC(C)C)NC(=O)C(C(C)C)NC(=O)[C@H](C)NC(=O)C(C(C)CC)NC(=O)C(CCCN=C(N)N)NC(=O)C(CCCCN)NC(=O)C(CCCN=C(N)N)NC(=O)C(CCCCN)NC(=O)C([C@H](C)CC)NC(=O)C(CCCCN)NC1=O (stereo not given in full)", "Target system": "NCI/ADR-RES ovarian", "Category label": "inactive"}
{"Molecule": "N#CCCCCCCCCCCC#N", "Target system": "NCI/ADR-RES ovarian", "Category label": "inactive"}
{"Molecule": "COc1cc(-c2nc(/C=C3/C(=O)Nc4ccccc43)c3ccccn23)cc(OC)c1OC", "Target system": "NCI/ADR-RES ovarian", "Category label": "inactive"}

====

- System: SNB-75 CNS
- Test details: NCI-60 one-dose screen, 48 h
- Conditions used: 10 µM unless noted
This is part of a sample that, as a whole, favours compounds with a hit. Of some 83,000 tested, about 20% had one in any assay. Active and inactive are the calls of the source. The calls were made as follows: active = growth percent below 10; inactive = the rest.
Possible outcomes: 1.0 = active, 0.0 = inactive

{"Compound": "CC#Cc1nc(Nc2cc(C)[nH]n2)c2ccccc2n1", "Category label": 1.0}
{"Compound": "Cc1nc2ccccc2c(=O)n1-c1cccc(OCc2cn(-c3cccc(O)c3)nn2)c1", "Category label": 0.0}
{"Compound": "CC(=O)Nc1nc(C)c(C(=O)NN)s1", "Category label": 0.0}
{"Compound": "CC1C(=O)CCCC1=O", "Category label": 0.0}
{"Compound": "Ic1ccc(SSc2ccc(I)cc2)cc1", "Category label": 0.0}
{"Compound": "COc1cc(-c2nc3c(c(C)nc4c3nnn4-c3ccccc3)c(=O)o2)cc(OC)c1OC", "Category label": 0.0}
{"Compound": "COC1=C(OC)C(=O)c2ccccc2C1=O", "Category label": 0.0}
{"Compound": "COc1ccccc1CNCCCN1C(=O)c2ccc3c4c(ccc(c24)C1=O)C(=O)N(CCCNCc1ccccc1OC)C3=O", "Category label": 1.0}
{"Compound": "Clc1ccc(I)c2ccccc12", "Category label": 0.0}
{"Compound": "O=C(Nc1cccc2[nH]c(C(F)(F)F)nc12)c1ccc(F)cc1", "Category label": 0.0}
{"Compound": "COC(=O)/C=C/c1cc(O)c2oc(-c3ccc(O)c(O)c3)c(C(=O)OC)c2c1", "Category label": 1.0}
{"Compound": "COc1ccc(/C=C2\\CCCC3=C2N=C2SC=NN2C3c2ccc(OC)c(OC)c2)cc1OC (configuration not stated)", "Category label": 0.0}

====

- Test system: HOP-62 NSCLC
- Test details: NCI-60 one-dose screen, 48 h
- Conditions used: 10 µM unless noted
The panel holds about 83,000 compounds, 20% with a hit somewhere; the sample as a whole holds those more often. The source made the active and inactive calls. The calls were made as follows: active = growth percent below 10; inactive = the rest.
Possible outcomes: active, inactive

{"Molecule": "COC(=O)c1c[n+]([O-])ccc1OC", "Category label": "inactive"}
{"Molecule": "COc1cc2c(c3c1c(=O)c1cccc(F)c1n3C)C=CC(C)(C)O2", "Category label": "inactive"}
{"Molecule": "CNc1nc2ncn(C)c2c(=O)[nH]1", "Category label": "inactive"}
{"Molecule": "CC(=O)O.[In]", "Category label": "inactive"}
{"Molecule": "Cc1ccccc1-n1c(C)nc2cc(NC(=O)c3ccc(Cl)cc3)ccc2c1=O", "Category label": "inactive"}
{"Molecule": "O=C1C(Br)=CC2C1C1C3CCC3C2(Br)C12OCCO2 (configuration not stated)", "Category label": "inactive"}
{"Molecule": "Oc1ccc2ccccc2c1/C=N\\Nc1ccccn1", "Category label": "active"}
{"Molecule": "CC(C)C(=O)c1ccc(Cl)s1", "Category label": "inactive"}
{"Molecule": "COc1ccccc1C(=O)Nc1cccc(-c2cc(=O)c3c(OC)c(OC)c(OC)cc3o2)c1", "Category label": "inactive"}
{"Molecule": "CC(O)CN(CC(C)O)N(CC(C)O)CC(C)O (configuration not stated)", "Category label": "inactive"}
{"Molecule": "O=c1c2c(c3ccccc3n1-c1ccccc1)NC(=S)NC2c1ccc(Cl)cc1 (configuration not stated)", "Category label": "inactive"}
{"Molecule": "CCOC(=O)c1csc(-c2ccc(COC(=O)c3ccccc3)o2)n1", "Category label": "inactive"}
